- Test system: PPARg:RXRa DBDmut IVT, anti-RXR (DBD mutation: RXRa K156A/R161A, NR concentration 270 nM, RXRa partner concentration 90 nM)
- Test name: PBM binding z-score (relative to random genomic background probes); higher = stronger binding; sequences stand for … in GC…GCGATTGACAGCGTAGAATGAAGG
Below: a set of entries, each annotated with reported PBM binding z-score.
Form rule: numeric answer, no unit written next to it.

-- ask Recorded PBM binding z-score for GCTGCTAGGTCAGGTGGGTCAGCTAACGGGTACG , please?
-- reply 2.85

-- ask Which PBM binding z-score value is on record for TCTTGTAGATCAGGCAGGTTAAGAAAGCCTGAGT ?
-- reply 1.29

-- ask Fill blank: measured PBM binding z-score of the sequence CCTACTGGGCCAAGGTCATTGGTCAGTCAAAGCA is ____.
-- reply 3.94

-- ask # PBM binding z-score lookup, item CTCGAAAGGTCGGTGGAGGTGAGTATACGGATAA
-- reply 0.0934

-- ask What value of measured PBM binding z-score is listed for TCTGCTAGGTCAGTTCGTCAGCTAACGAGCTGCC ?
-- reply 2.26

-- ask I have this sequence here, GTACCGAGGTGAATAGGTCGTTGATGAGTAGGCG , and I need its recorded PBM binding z-score.
-- reply 1.68

-- ask Look at this sequence and give its reported PBM binding z-score. CCCACTGGGCCAAAGGTCATTGATTCCAATGCTC
-- reply 4.77

-- ask Which PBM binding z-score is reported for this sequence? CCGACTGGGGAAGAAAGGTTACCATACCATCCGG
-- reply -0.325

-- ask Request the reported PBM binding z-score associated with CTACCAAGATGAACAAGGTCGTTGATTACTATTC
-- reply 0.459

-- ask What value of PBM binding z-score has been recorded for this entry: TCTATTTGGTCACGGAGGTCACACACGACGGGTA
-- reply 2.53

-- ask Value lookup for PBM binding z-score; key = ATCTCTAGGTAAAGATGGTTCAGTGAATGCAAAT
-- reply 1.87

-- ask Consider the sequence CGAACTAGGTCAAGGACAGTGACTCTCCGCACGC and give its measured PBM binding z-score.
-- reply 8.38

###

- Test system: RXRa homodimer (NR concentration 180 nM)
- Test name: PBM binding z-score (relative to random genomic background probes); higher = stronger binding; sequences stand for … in GC…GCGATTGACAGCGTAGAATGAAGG
If the reported PBM binding z-score equals or exceeds 2, assign satisfied. If not, assign not satisfied.

Consider the following illustrative entries.
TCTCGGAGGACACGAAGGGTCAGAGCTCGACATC :: satisfied
CCGACTCGGGCAGAAAGGTTACCATACCATCCGG :: not satisfied
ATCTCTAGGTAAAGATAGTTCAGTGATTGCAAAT :: not satisfied

-- ask // inclusive: PBM binding z-score at least 2? input: ACTAGCAGGCTAAGTTTGGGTCACTCAAACAAAG
-- reply not satisfied

-- ask Dear colleague, could you confirm whether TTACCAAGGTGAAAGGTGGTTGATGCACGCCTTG has PBM binding z-score at or above 2?
-- reply not satisfied

###

- Test system: RARb:RXRa (NR concentration 270 nM, RXRa partner concentration 90 nM)
- Test name: PBM binding z-score (relative to random genomic background probes); higher = stronger binding; sequences stand for … in GC…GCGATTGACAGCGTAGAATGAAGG
Property measured: PBM binding z-score
Keep the answer to the number alone.

Here are 3 sequences together with their reported answers.
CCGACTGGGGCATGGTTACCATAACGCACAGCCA :: 0.396
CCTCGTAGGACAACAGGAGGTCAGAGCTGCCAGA :: 2.56
GCATATAGGTAATACAAGGTGAACGTCCGATTGT :: 0.51

-- ask Given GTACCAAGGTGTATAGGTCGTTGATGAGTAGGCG , state its recorded PBM binding z-score.
-- reply 0.755

-- ask PBM binding z-score lookup needed for ACAGACAGGTGAGTGAAGGTAACTCATCTGGACG , thanks.
-- reply 0.49

-- ask Find the recorded PBM binding z-score belonging to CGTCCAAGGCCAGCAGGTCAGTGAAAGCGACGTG and report it.
-- reply 2.36

-- ask Using the record for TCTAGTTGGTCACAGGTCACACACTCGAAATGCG , report its PBM binding z-score.
-- reply 3.33

-- ask What does the record list as PBM binding z-score for AATACAGGGTCATCGTAGGCCACAGTACGCACAG ?
-- reply 4.59

-- ask Any idea what its PBM binding z-score is? The sequence is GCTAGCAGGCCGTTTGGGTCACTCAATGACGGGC
-- reply 1.14

-- ask Any idea what its PBM binding z-score is? The sequence is GGAACGAGGGCATTCAAGTTGATAGCATGGCGAT
-- reply 1.9

-- ask Which PBM binding z-score is listed for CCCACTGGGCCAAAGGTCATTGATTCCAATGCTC ?
-- reply 4.39

-- ask What does the record list as PBM binding z-score for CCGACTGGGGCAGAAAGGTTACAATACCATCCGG ?
-- reply 1.73

-- ask Entry ACTTACGGGTGAACGAGGTTATAGCACGCGTATA : reported PBM binding z-score = ?
-- reply 1.19
